Test system: CAKI-1
Test: NCI tumour cell line growth inhibition, 48 h
Calls of active or inactive are those of the source. Rule as the data show it: active = GI50 up to about 1.1 µM and inactive = higher.
assay.endpoint: GI50

# molecule `Cc1ccc(N2C(=O)CS/C2=C(\C#N)c2nc3ccccc3[nH]2)cc1` ; its GI50 = > 100 µM (inactive)

The recorded GI50 for `COc1ccc(CNc2nc(NCc3ccc(OC)cc3)nc(NC3CCCCC3)n2)cc1` is 1.07 µM (active)

Summary for this molecule, `CCN(CC)CCCNc1c2cc(OC)ccc2nc2cccc([N+](=O)[O-])c12` : GI50 is 0.21 µM (active)

Record `CC(=O)CC(=O)CCCC(=O)Nc1ccc(Cl)cc1C` . Reported GI50: > 100 µM (inactive)

Lab book: GI50 of `Cc1cc(Cl)ccc1C(=O)c1ccc2ccccc2c1C(=O)O` noted as > 100 µM (inactive)

The value of GI50 measured for the molecule `O=C(Nc1ccc(Br)cc1)c1c(-c2ccccc2)c2ccc(O)cc2oc1=O` turned out to be > 10 µM (inactive)

For this molecule ( S=c1sc2c(n1-c1ccccc1)N=CNC2S (configuration not stated) ), measured GI50 is > 100 µM (inactive)

Reported GI50 of `c1ccc2cc(-c3cc4ccccc4s3)ccc2c1` : > 100 µM (inactive)

The molecule identified as `c1ccc2c(c1)c(N1CCCCC1)cc1nc3c(cc(N4CCCCC4)c4ccccc43)nc12` registered its GI50 at > 100 µM (inactive)

Memo: `O=[N+]([O-])c1cc2c(cc1O)[nH]c1cccc([N+](=O)[O-])c12` , reported GI50: > 100 µM (inactive)

Memo: `CC(C)(/N=N/C(C)(C)C1=NCCN1)C1=NCCN1` , reported GI50: > 83.9 µM (inactive)

Quick note, GI50 for `[O-][n+]1onc2c1/C(=N/O)CCC2` landed at > 100 µM (inactive)

Per the records, this molecule ( C/C=C(/C)C(=O)O[C@@H]1CCN2CC[C@H](COC(=O)/C(=C/C)CO)C12 (some centres not stated) ) has GI50 equal to > 100 µM (inactive)

molecule `COc1ccc(Br)c(CCCCC(=O)O)c1` , GI50 observed: > 100 µM (inactive)

Entry `Clc1ccc(CSCCc2ccncc2)cc1Cl` — recorded GI50 = 38.5 µM (inactive)

Field GI50 (entry `COCOc1cc(OC)ccc1C/C=N/O` ) reads > 100 µM (inactive)

// field: GI50; key: `CCn1c(O)c(C(=O)Nc2cccs2)c(=O)n(CC)c1=S` ; value = 22.6 µM (inactive)

Value of GI50 reported for the molecule `CN(C)CC(C)(C)C(=O)/C=C/c1ccc(/C=C/C(=O)C(C)(C)CN(C)C)cc1` is 1.42 µM (inactive)

GET /value?item= Cc1ccc([N+](=O)[O-])cc1S(=O)(=O)Nc1ccc(C2=NN(C(=O)c3ccccc3)C(c3ccccc3)C2)cc1 (configuration not stated) &field=GI50 returns 20 µM (inactive)

Measured GI50 of `O=[N+]([O-])c1ccc(/C=C/c2ccc(/C=C/c3ccc([N+](=O)[O-])cc3[N+](=O)[O-])cc2)c([N+](=O)[O-])c1` : > 100 µM (inactive)

Reported GI50 ( `CO/C(=N\N=C\c1ccc(Cl)cc1Cl)c1ccncc1` ) = > 10 µM (inactive)

The reported GI50 of the molecule COC(=O)C(Cc1c[nH]c2ccccc12)NC1=Nc2ccncc2S(=O)(=O)N1c1cccc(OC(C)C)c1 (configuration not stated) was 32.4 µM (inactive)

###

Tested on: SK-MEL-2
Experiment: NCI tumour cell line growth inhibition, 48 h
Calls of active or inactive are those of the source. Cut-off read from the data, not from the text of the source: active = GI50 up to about 1.1 µM and inactive = higher.
Entry note: the call must match one of Y (active), N (inactive)

What did the test return for `Nc1nc(=O)[nH]cc1F` ?
N

Hi, do you know how `CC(C)(O)CCc1ccc(O)c2c(=O)c3c(O)c4c(cc3oc12)O[C@H]1OC=C[C@@]41O` came out in this test?
Y

GET /call?item= CSc1nc(SC)c2ncn(C3CC(Oc4ccc(C)cc4)C(COc4ccc(C)cc4)O3)c2n1 (configuration not stated) returns the recorded outcome of this test.
N

Identify the outcome logged in this assay for the compound shown: O=C(CC1(O)C(=O)Nc2ccccc21)c1ccco1 (configuration not stated)
N

What classification did `O=C(Cc1nc2ccccc2o1)C(=O)Nc1ccccc1C(F)(F)F` end up with in this test?
N

Could you please tell me the result logged for `O=c1oc2cccnc2n1CCN1CCN(c2ccc(Oc3ccccc3)cc2)CC1` in this assay?
N

What call does the record list for `CCn1c(O)c(C(=O)Nc2cccs2)c(=O)n(CC)c1=S` ?
N

Test call, this compound: `CCSCN(C)c1nc(N(C)C)nc(N(C)C)n1`
N

Query: recorded result category for `N=C1/C(=C/c2ccco2)C(=O)N=C2SC=NN12` in this test
N

What outcome does the record of this test show for CC1CC(C)CC(NC2=NCCO2)C1 (configuration not stated) ?
N

// param item: `COc1ccc(Cc2c(=O)[nH]nc3ccccc23)cc1` ; yields the recorded call
N

Record request — test call for `COC(=O)[C@@H]1CN(C(C)=O)C(=O)N1C(=O)OCc1ccccc1`
N

###

System: RXF 393
Assay: NCI tumour cell line growth inhibition, 48 h
Active and inactive are the calls of the source. Cut-off read from the data, not from the text of the source: active = GI50 up to about 1.1 µM and inactive = higher.
assay.endpoint: GI50

Test item NC1=NC(=O)C(CC(=O)Nc2ccc([N+](=O)[O-])cc2[N+](=O)[O-])S1 (stereo not drawn) ; RXF 393; reported GI50 was > 100 µM (inactive)

`Cc1ccc(SSc2ccc(C)cc2C(=O)O)c(C(=O)O)c1` on RXF 393 gives GI50 = > 100 µM (inactive)

// compound `CN(C)/C=N/S(=O)(=O)c1nn2c(C=O)c(-c3ccc(Cl)cc3)nc2s1` , assay RXF 393, GI50 value: 1.51 µM (inactive)

// GI50 (RXF 393) for COC(=O)[C@@H]1[C@H](OC(C)=O)CCC2[C@@]3(C[C@@H](c4ccoc4)O[C@@H]3OC)[C@H](C)CC[C@]21C(=O)OC (stereo partly drawn) = > 25 µM (inactive)

# GI50 measured on RXF 393 for item Cn1c(=O)oc2cc(C(O)CN3CCN(Cc4ccc5c(c4)OCO5)CC3)ccc21 (stereo not drawn) = > 100 µM (inactive)

Simply: Oc1cc(O)c2c(c1)OC(c1ccc(O)c(O)c1)C(OC1(c3cc(O)c(O)c(O)c3)Oc3cc(O)cc(O)c3C(O)C1O)C2 (stereo not drawn) , RXF 393, GI50 = 73.5 µM (inactive)

The compound `COc1ccc(/N=C/C=C/Nc2ccc(OC)cc2)cc1` on RXF 393: GI50 was 7.67 µM (inactive)

Bench note, RXF 393: CC1=CC(/C=C(\C)CCCc2ccoc2)C2(OC(=O)C(C)=C2O)[C@H]2C1CC[C@@H]2C (stereo partly drawn) , GI50 reads 18.3 µM (inactive)

For the compound `O=C(NCC(O)CNC(=O)C(F)(F)F)C(F)(F)F` , the measured GI50 on RXF 393 was > 100 µM (inactive)

The compound C=C(CC(NC(=O)c1ccc(C(CC)Cc2cnc3nc(N)nc(N)c3n2)cc1)C(=O)O)C(=O)O (stereo not drawn) , tested on RXF 393, showed GI50 of 0.237 µM (active)

Record COC(=O)C(Cc1c[nH]c2ccccc12)NC1=Nc2ccncc2S(=O)(=O)N1c1cccc(OC(C)C)c1 (stereo not drawn) has RXF 393 GI50 equal to > 100 µM (inactive)

Case `c1ccc2/c3[nH]/c(c2c1)=N\c1ccc(cc1)-c1nc2ccc(cc2o1)/N=c1/[nH]/c(c2ccccc12)=N/c1ccc2nc(oc2c1)-c1ccc(cc1)\N=3` , RXF 393, GI50 recorded as 43.2 µM (inactive)

The measured GI50 that `Clc1ccc(CCNC2(c3cc4ccccc4s3)CCCCC2)cc1Cl` showed for RXF 393 is 17.7 µM (inactive)

Sample `O=C(CSCC(=O)N/N=C\c1ccc(O)c(O)c1O)N/N=C\c1ccc(O)c(O)c1O` , system: RXF 393. Its GI50 is 34.9 µM (inactive)

For the compound Cc1ccc([N+](=O)[O-])cc1S(=O)(=O)Nc1ccc(C2=NN(C(=O)c3ccccc3)C(c3ccccc3)C2)cc1 (stereo not drawn) , the measured GI50 on RXF 393 was 12.1 µM (inactive)

Item: O=C(CC1(O)C(=O)Nc2ccccc21)c1ccco1 (stereo not drawn) | System: RXF 393 | GI50: > 100 µM (inactive)

The reported RXF 393 GI50 of `CN(C)CC(C)(C)C(=O)/C=C/c1ccc(/C=C/C(=O)C(C)(C)CN(C)C)cc1` is 1.17 µM (inactive)

# value of GI50, RXF 393, item `CCc1cccc(C)c1NC(=O)CCc1nnc2s/c(=C\c3cccc4ccccc34)c(=O)n12` = > 100 µM (inactive)

Origin of the recorded values: ChEMBL document CHEMBL1201862
